Test system: OVCAR-5 ovarian
Test: NCI tumour cell line growth inhibition, 48 h
Quantity: TGI (µM)
Express the result in µM but write the number alone.

Past entries and their recorded results:
{"Compound": "C[C@]12CC[C@@H]3c4ccc(Oc5nc(N6CC6)nc(N6CC6)n5)cc4CC[C@H]3[C@@H]1CCC2=O", "Unit Text": "µM", "TGI": 30.2}
{"Compound": "CCCCNC(=O)NS(=O)(=O)c1ccc(N2N=C(c3ccc(C)cc3C)CC2c2ccc(N(C)C)cc2)cc1 (stereo not given)", "Unit Text": "µM", "TGI": 96.1}
{"Compound": "COc1ccc(S(=O)(=O)N(Cc2ccc3c(n2)C=CC(C)(C)O3)C2CCC2)cc1OC", "Unit Text": "µM", "TGI": 7.25}

// query Enter measured TGI, system OVCAR-5 ovarian, for the compound shown: Brc1ccc2c(-c3nc(-c4c[nH]c5ccc(Br)cc45)cs3)c[nH]c2c1
// result 10.4

====

System: SNB-75 CNS
Test: NCI tumour cell line growth inhibition, 48 h
Quantity: GI50

{"Compound": "C=C1C(=O)O[C@H]2[C@H]1CC/C(COC(=O)/C=C\\C(=O)NCc1ccc(Cn3c(=O)sn(-c4ccc(C#N)cc4)c3=O)cc1)=C\\CC[C@@]1(C)O[C@@H]21", "Reported": "0.581 µM"}
{"Compound": "COc1cc2c(/C=C3/C(=O)Nc4cccc(Cl)c43)c(Cl)n(Cc3ccccc3)c2cc1C", "Reported": "21.1 µM"}
{"Compound": "COc1ccc(-n2cc(-c3cc(OC)c(OC)c(OC)c3)[nH]c2=S)cc1OC", "Reported": "57 µM"}
{"Compound": "C[C@]12CC[C@@H]3c4ccc(Oc5nc(N6CC6)nc(N6CC6)n5)cc4CC[C@H]3[C@@H]1CCC2=O", "Reported": "2.55 µM"}
{"Compound": "COc1ccc(C2CC(=O)c3c(O)c(OC)c(OC)c(OC)c3O2)c(O)c1 (centres undefined)", "Reported": "0.0625 µM"}
{"Compound": "COc1ccc(-c2cc3c(nn2)-c2ccccc2C3=O)cc1", "Reported": "> 100 µM"}
{"Compound": "Cc1cc(C)cc(Nc2cc(C)nc3nc(C(F)(F)F)nn23)c1", "Reported": "25.2 µM"}
{"Compound": "NC(N)=NC(N)=Nc1cc2ccccc2c2ccccc12", "Reported": "5.12 µM"}

Alright, here's another compound for you.
// query Provide only the value of recorded GI50 for COc1ccc(S(=O)(=O)N(Cc2ccc3c(n2)C=CC(C)(C)O3)C2CCC2)cc1OC
// result < 0.01 µM

====

The reader will find reported TGI values listed item by item below.
System: LOX IMVI melanoma
Test: NCI tumour cell line growth inhibition, 48 h

// query Provide only the value of recorded TGI for Oc1cc(O)c2c(c1)O[C@H](c1cc(O)c(O)c(O)c1)[C@H](O)C2
// result 77.6 µM

// query Provide only the value of recorded TGI for c1ccc2c(c1)nc1n2CNCC1
// result 73.3 µM

// query Provide only the value of recorded TGI for CC(C)=[CH][Sb]([Br])([CH]=C(C)C)([CH]=C(C)C)[CH]=C(C)C
// result > 100 µM

// query Provide only the value of recorded TGI for COc1ccc(/C(=N/Nc2ccc([N+](=O)[O-])cc2)Sc2cc(Cl)c(C)cc2S(N)(=O)=O)cc1
// result 10.4 µM

// query Provide only the value of recorded TGI for Cc1cc(C)cc(Nc2nnc3n2S(=O)(=O)c2cc(C#N)c(Cl)cc2S3)c1
// result 9.03 µM

// query Provide only the value of recorded TGI for O=[N+]([O-])c1ccc2nnnn2c1
// result 35.8 µM

// query Provide only the value of recorded TGI for CC(=O)c1ccc(NC(=O)/C(Cc2ccccn2)=N/NC(=O)C[N+](C)(C)C)cc1
// result > 100 µM

// query Provide only the value of recorded TGI for COC(=O)c1ccc2c(c1)CC1(C2)Cc2cc3c(cc2C1=O)CCC3 (stereo not given)
// result 94.2 µM

// query Provide only the value of recorded TGI for COc1ccc(-c2c(C#N)c(NC(=S)NC(=O)c3ccccc3)nc3c2CCCC3)cc1OC
// result > 100 µM

// query Provide only the value of recorded TGI for O=C(Nc1ccc2nc(-c3ccccc3)cn2c1)Oc1ccccc1
// result > 100 µM
